Assay: NCI Yeast Anticancer Drug Screen. Data for the rad50 strain (AID 155);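 further: 0% = growth of vehicle-only cultures of the same strain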
Details: S. cerevisiae rad50 strain growth inhibition; at 50.0 µM; stronger effect = higher value
Procedure: Growth inhibition of yeast strains with defined genetic alterations is measured as a screen for potential anti-cancer activity. Selected strains with alterations in DNA damage repair or cell cycle control were exposed to compounds and growth inhibition was measured relative to vehicle treated controls. The strain used in this assay is rad50
This is part of a sample that, as a whole, favours compounds with a hit. Of some 79,000 tested, about 15% had one in any assay. Active and inactive are the calls of the source. No stated cut-off is given here; in the data, active means growth inhibition above about 70%; inactive means the rest.
Measured growth inhibition values are reported for all entries that follow.

Solved entries:
compound	growth inhibition
CCC(O)C[As](=O)(O)c1ccccc1OC (centres undefined)	5.75% (inactive)
O=c1[nH]c(=O)[nH]c(=O)[nH]1	25.6% (inactive)
O=C(CCBr)Nc1ccc(Cl)cc1C(=O)c1ccccc1	6.65% (inactive)
C[N+](C)(C)CC1CCc2ccccc2C1=O (centres undefined)	89.2% (active)
CNC(=O)N1CN(c2ccccc2)C2(CCN(CCCC3(c4ccc(F)cc4)OCCO3)CC2)C1=O	-16% (inactive)
CCC1(CCNC(=O)CCl)C(=O)NC(=O)NC1=O	3.05% (inactive)
c1ccc2nc(-c3ccc4ccccc4n3)ccc2c1	-5.95% (inactive)
C=CCNC(=S)/N=C/c1c(O)[nH]c(=O)[nH]c1=O	-64.8% (inactive)

Lookup: For NC1Cc2cc(O)ccc2C1=O (centres undefined) , what is its reported growth inhibition?
Found: -5.95% (inactive)

Lookup: # query: growth inhibition of entry CC(Cl)CN(CC(C)Cl)c1ccc2c(c1)Cc1cc([N+](=O)[O-])ccc1-2 (centres undefined)
Found: 10.3% (inactive)

Lookup: Fill blank: measured growth inhibition of the compound CCC1(c2ccc(C)cc2)C(=O)NC(=S)NC1=O is ____.
Found: 6.1% (inactive)

Lookup: Fill blank: measured growth inhibition of the compound CO[C@H]1C[C@H](O[C@H]2CC[C@]3(C=O)[C@H]4CC[C@]5(C)[C@@H](C6=CC(=O)OC6)CC[C@]5(O)[C@@H]4CC[C@]3(O)C2)O[C@H](C)[C@H]1O is ____.
Found: 33.4% (inactive)

Lookup: Entry under review: CCC(/C=N/N=C(N)N)=N\N=C(N)N . Reported growth inhibition?
Found: 8.4% (inactive)

Lookup: Entry under review: Nc1ccc2c(c1)[O][Sn]([c]1ccccc1)([c]1ccccc1)[O]C2=O . Reported growth inhibition?
Found: 85.5% (active)

Lookup: Would you kindly share the measured growth inhibition for Cc1ccc(C(O)(c2ccc(C)cc2)c2ccccn2)cc1 ?
Found: -6.65% (inactive)
